Result type: IC50

Exercise: Report the value of IC50 obtained on HT29 colon cancer cells for "O=C(O)Cc1c(O)cc(O)cc1OC(=O)c1ccc(O)c(O)c1" .
Solution: > 100 µM

###

So I've got a bunch of molecules here, and I need their IC50 values.
# System: HCT116 colon cancer cells
# Test description: Cytotoxicity assay, HCT116
# Condition info: read-out: Cytotoxicity IC50 HCT116; 72 hours, cell count

Exercise: Give me measured IC50, please, for this molecule: OC[C@H]1O[C@@H](Oc2cc3c(O)cc(O)cc3[o+]c2-c2ccc(O)c(O)c2)[C@H](O)[C@@H](O)[C@@H]1O [Compound 3, cyanidin 3-glucoside]
Solution: ~70 µM

Exercise: Give me measured IC50, please, for this molecule: OC[C@H]1O[C@@H](Oc2cc3c(O)cc(O)cc3[o+]c2-c2cc(O)c(O)c(O)c2)[C@H](O)[C@@H](O)[C@@H]1O [Compound 4, delphinidin 3-glucoside]
Solution: 12 µM

Origin of measurements: patent US8846757B2
